The measurements presented in this section are drawn from patent US20170281611A1.

- Test system: CSM14.1 cells
- Method: ER stress cell survival assay (thapsigargin, […]-GLO)
- Format: cell-based
- Recorded conditions: dose-response
pEC50: −log10 of the molar value.
pEC50 reference

compound=CCNc1ccc(C(=O)Nc2cccc3ccc(C)nc23)cc1 readout_label=pEC50 observed_result="> 4.70"
compound="O=C(c1ccccc1F)N1CCN(c2ccnc3cc(Cl)ccc23)CC1 [Compound D2]" readout_label=pEC50 observed_result="> 4.70"
compound=O=C(c1cccc(Cl)c1)N1CCN(c2ccnc3cc(Cl)ccc23)CC1 readout_label=pEC50 observed_result="4.00 to 4.70"
compound=Cc1ccc(C(=O)N2CCN(c3ccnc4cc(Cl)ccc34)CC2)cc1 readout_label=pEC50 observed_result="4.00 to 4.70"
compound=Cc1ccc(C(=O)N2CCN(c3ccnc4cc(Cl)ccc34)CC2)cc1Cl readout_label=pEC50 observed_result="> 4.70"

For reference, reported pEC50 for O=C(c1ccccc1)N1CCN(c2ccnc3cc(Cl)ccc23)CC1 [Compound D1] stands at 4.00 to 4.70

Documented pEC50 of O=C(C1CC1)N1CCN(c2ccnc3cc(Cl)ccc23)CC1 : > 4.70

Measured pEC50 of Cc1ccc2cccc(NC(=O)c3ccc(O)cc3)c2n1 : > 4.70

Per the record, O=C(c1ccc(N2CCCC2)c([N+](=O)[O-])c1)N1CCN(c2ccnc3cc(Cl)ccc23)CC1 has pEC50 of > 4.70

* * *

The compounds listed here are annotated with their Cmax.
- Method: Pharmacokinetics in Sprague Dawley rats (Table 4)
- Assay type: in vivo
- Recorded conditions: Sprague Dawley, in vivo; rat, PO (10 mg/kg)
Unit µM implied. Number only.

Solved entries:
compound="O=C(c1ccccc1)N1CCN(c2ccnc3cc(Cl)ccc23)CC1 [Compound D1]" readout_label=Cmax endpoint_unit=µM observed_result=15.3
compound=O=C(c1ccc(N2CCCC2)c([N+](=O)[O-])c1)N1CCN(c2ccnc3cc(Cl)ccc23)CC1 readout_label=Cmax endpoint_unit=µM observed_result=13

Read the next record carefully.
Looking up O=C(c1ccccc1F)N1CCN(c2ccnc3cc(Cl)ccc23)CC1 [Compound D2] , I see its Cmax listed as 7.33

* * *

- Method: Pharmacokinetics in Sprague Dawley rats (Table 4)
- Type: in vivo
- Recorded conditions: Sprague Dawley, in vivo; rat, IV (2 mg/kg)
A collection of molecules and their measured Tmax
# unit: min | format: bare number

molecule="O=C(c1ccccc1)N1CCN(c2ccnc3cc(Cl)ccc23)CC1 [Compound D1]" readout_label=Tmax observed_result=1.2
molecule="O=C(c1ccccc1F)N1CCN(c2ccnc3cc(Cl)ccc23)CC1 [Compound D2]" readout_label=Tmax observed_result=1.02

API: the following record is the query input.
Data point: O=C(c1ccc(N2CCCC2)c([N+](=O)[O-])c1)N1CCN(c2ccnc3cc(Cl)ccc23)CC1 ; Tmax = 1.2

* * *

- Method: Pharmacokinetics in Beagle dogs (Table 5)
- Format: in vivo
- Recorded conditions: male, Beagle, plasma; dog, PO (10 mg/kg)
Readout label: Cmax (µM)
Enter your answer as a number in µM; do not include the unit.

// O=C(c1ccc(N2CCCC2)c([N+](=O)[O-])c1)N1CCN(c2ccnc3cc(Cl)ccc23)CC1 : Cmax value = 26.5

* * *

- Method: Pharmacokinetics in Beagle dogs (Table 5)
- Format: in vivo
- Recorded conditions: male, Beagle, plasma; dog, IV (1 mg/kg)
Readout label: half-life (h)
Numbers only; they are read as h.

O=C(c1ccc(N2CCCC2)c([N+](=O)[O-])c1)N1CCN(c2ccnc3cc(Cl)ccc23)CC1 [Compound D6] yielded half-life of 4.8
